Test system: MDA-MB-435
Test: Cytotoxicity against human MDA-MB-435 cells assessed cell growth at 10 uM after 48 hrs by SRB assay relative to control
Assay type: functional
Decision: Activity compared against 90%; not below it gives 1 (yes), below it gives 0 (no).

Task: Please indicate if the recorded Activity for `Cn1c2ccccc2c2c3c(=O)[nH]c(N)nc3c3c4cccnc4n(C)c3c21` meets or exceeds 90%.
Result: 0 (no)

Task: Could you tell me if the measured Activity of `Cn1c2ccccc2c2c3nc(N)[nH]c(=O)c3c3c4ccccc4n(C)c3c21` reaches 90% or more?
Result: 0 (no)

Task: Is reported Activity greater than or equal to 90% here: `Cn1cc(-c2c(-c3cn(C)c4ncccc34)nc(N)[nH]c2=O)c2ccccc21`
Result: 1 (yes)

Task: # check: Activity of `Cn1cc(-c2[nH]c(=O)[nH]c(=O)c2-c2cn(C)c3ccccc23)c2ccccc21` is greater than or equal to 90%
Result: 0 (no)

Task: Hello, I need to know if `Cn1cc(-c2[nH]c(=S)[nH]c(=O)c2-c2cn(C)c3ccccc23)c2ccccc21` has measured Activity not below 90%. Thanks!
Result: 0 (no)

Task: In plain terms: is recorded Activity at least 90% for `Cn1cc(-c2nc(N)[nH]c(=O)c2-c2cn(C)c3ccccc23)c2ccccc21` ?
Result: 1 (yes)

====

Tested on: NCI-H460
Assay: Cytotoxicity against human NCI-H460 cells assessed as cell growth at 10 uM after 48 hrs by SRB assay relative to control
Assay type: functional
Settings: NCI-H460, 48 h, read-out: Activity
So I've got a bunch of compounds here, and I need their growth at 10 µM values.
Entry rule: numbers only, all in %.

Task: Looking for the measured growth at 10 µM of `Cn1c2ccccc2c2c3c(=O)[nH]c(N)nc3c3c4cccnc4n(C)c3c21` , can you help?
Result: 65.5

Task: Entry `Cn1cc(-c2[nH]c(=S)[nH]c(=O)c2-c2cn(C)c3ccccc23)c2ccccc21` : reported growth at 10 µM = ?
Result: 93

Task: Reported growth at 10 µM, compound `Cn1c2ccccc2c2c3nc(N)[nH]c(=O)c3c3c4ccccc4n(C)c3c21` : ____
Result: 40.6

Task: Endpoint output: growth at 10 µM of `Cn1cc(-c2c(-c3cn(C)c4ncccc34)nc(N)[nH]c2=O)c2ccccc21` . Value?
Result: 98.4

Task: // growth at 10 µM lookup, key: `Cn1cc(-c2nc(N)[nH]c(=O)c2-c2cn(C)c3ccccc23)c2ccccc21`
Result: 90.7

Task: Quick one: growth at 10 µM for `Cn1cc(-c2[nH]c(=O)[nH]c(=O)c2-c2cn(C)c3ccccc23)c2ccccc21` ?
Result: 88.2

====

Record form. Attribute: growth at 10 µM. Fill in for each entry.
Test system: MOLT-4
Experiment: Cytotoxicity against human MOLT4 cells assessed as cell growth at 10 uM after 48 hrs by SRB assay relative to control
Assay type: functional
Conditions: MOLT-4, 48 h, read-out: Activity
State just the number; it will be interpreted in %.

Task: Need growth at 10 µM, item `Cn1c2ccccc2c2c3nc(N)[nH]c(=O)c3c3c4ccccc4n(C)c3c21`
Result: 53.3

Task: Need growth at 10 µM, item `Cn1cc(-c2[nH]c(=S)[nH]c(=O)c2-c2cn(C)c3ccccc23)c2ccccc21`
Result: 103

Task: What value of growth at 10 µM has been reported for the following molecule? `Cn1c2ccccc2c2c3c(=O)[nH]c(N)nc3c3c4cccnc4n(C)c3c21`
Result: 74.4

Task: Returns the measured growth at 10 µM for the input molecule. Input: `Cn1cc(-c2c(-c3cn(C)c4ncccc34)nc(N)[nH]c2=O)c2ccccc21`
Result: 97.1

Task: Recorded growth at 10 µM of `Cn1cc(-c2nc(N)[nH]c(=O)c2-c2cn(C)c3ccccc23)c2ccccc21` , please.
Result: 105

====

Tested on: SN12C
Experiment: Cytotoxicity against human SN12C cells assessed as cell growth at 10 uM after 48 hrs by SRB assay relative to control
Assay type: functional
Settings: read-out: Activity
Hi there, I'd appreciate the recorded growth at 10 µM for every entry that follows.
// units = %; emit number, no label

Task: Requested field: growth at 10 µM. Item: `Cn1c2ccccc2c2c3c(=O)[nH]c(N)nc3c3c4cccnc4n(C)c3c21`
Result: 91

Task: // lookup growth at 10 µM for `Cn1c2ccccc2c2c3nc(N)[nH]c(=O)c3c3c4ccccc4n(C)c3c21`
Result: 61.4

Task: Name the reported growth at 10 µM value associated with the molecule `Cn1cc(-c2[nH]c(=S)[nH]c(=O)c2-c2cn(C)c3ccccc23)c2ccccc21`
Result: 103

Task: May I ask what growth at 10 µM has been recorded for `Cn1cc(-c2[nH]c(=O)[nH]c(=O)c2-c2cn(C)c3ccccc23)c2ccccc21` ?
Result: 110

Task: Reported growth at 10 µM for `Cn1cc(-c2c(-c3cn(C)c4ncccc34)nc(N)[nH]c2=O)c2ccccc21` : what is it?
Result: 104

====

Assignment: determine reported growth at 10 µM for the given compounds.
System: BT-549
Assay: Cytotoxicity against human BT549 cells assessed as cell growth at 10 uM after 48 hrs by SRB assay relative to control
Format: functional
Conditions: BT-549, 48 h, read-out: Activity
// units = %; emit number, no label

Task: growth at 10 µM for `Cn1c2ccccc2c2c3nc(N)[nH]c(=O)c3c3c4ccccc4n(C)c3c21` ?
Result: 76.6

Task: Using the record for `Cn1cc(-c2[nH]c(=O)[nH]c(=O)c2-c2cn(C)c3ccccc23)c2ccccc21` , report its growth at 10 µM.
Result: 95.8

Task: Recorded growth at 10 µM for `Cn1cc(-c2[nH]c(=S)[nH]c(=O)c2-c2cn(C)c3ccccc23)c2ccccc21` , please?
Result: 102

Task: Give its growth at 10 µM value. Item: `Cn1c2ccccc2c2c3c(=O)[nH]c(N)nc3c3c4cccnc4n(C)c3c21`
Result: 66

Task: Quick check: growth at 10 µM of `Cn1cc(-c2nc(N)[nH]c(=O)c2-c2cn(C)c3ccccc23)c2ccccc21` ?
Result: 102

Task: Entry `Cn1cc(-c2c(-c3cn(C)c4ncccc34)nc(N)[nH]c2=O)c2ccccc21` : reported growth at 10 µM = ?
Result: 95.8

====

What growth at 10 µM was measured for each of the following?
Test system: SW-620
Assay: Cytotoxicity against human SW620 cells assessed as cell growth at 10 uM after 48 hrs by SRB assay relative to control
Format: functional
Details: SW-620, 48 h, read-out: Activity
Value expressed in %; do not type the unit.

Task: Tell me the measured growth at 10 µM of `Cn1cc(-c2[nH]c(=S)[nH]c(=O)c2-c2cn(C)c3ccccc23)c2ccccc21` , please.
Result: 98

Task: # growth at 10 µM lookup, item `Cn1cc(-c2nc(N)[nH]c(=O)c2-c2cn(C)c3ccccc23)c2ccccc21`
Result: 94

Task: Which growth at 10 µM is reported for this molecule? `Cn1cc(-c2c(-c3cn(C)c4ncccc34)nc(N)[nH]c2=O)c2ccccc21`
Result: 97.5

Task: What value of measured growth at 10 µM is listed for `Cn1c2ccccc2c2c3nc(N)[nH]c(=O)c3c3c4ccccc4n(C)c3c21` ?
Result: 31.6

Task: growth at 10 µM lookup needed for `Cn1c2ccccc2c2c3c(=O)[nH]c(N)nc3c3c4cccnc4n(C)c3c21` , thanks.
Result: 72

Task: Look up growth at 10 µM for this molecule: `Cn1cc(-c2[nH]c(=O)[nH]c(=O)c2-c2cn(C)c3ccccc23)c2ccccc21`
Result: 88.8

====

Test system: HCT-116
Experiment: Cytotoxicity against human HCT116 cells assessed as cell growth at 10 uM after 48 hrs by SRB assay relative to control
Type: functional
Settings: HCT-116, 48 h, read-out: Activity
Task for the reader: assign each of the following compounds its reported growth at 10 µM.
Record the value in %, omitting the unit from your answer.

Task: # get_value(readout='growth at 10 µM', item= `Cn1c2ccccc2c2c3c(=O)[nH]c(N)nc3c3c4cccnc4n(C)c3c21` )
Result: 63

Task: Quick check: growth at 10 µM of `Cn1c2ccccc2c2c3nc(N)[nH]c(=O)c3c3c4ccccc4n(C)c3c21` ?
Result: 34

Task: What does the data say about its growth at 10 µM? Entry: `Cn1cc(-c2[nH]c(=S)[nH]c(=O)c2-c2cn(C)c3ccccc23)c2ccccc21`
Result: 98.8

Task: Param item = `Cn1cc(-c2nc(N)[nH]c(=O)c2-c2cn(C)c3ccccc23)c2ccccc21` ; retrieve measured growth at 10 µM.
Result: 99

Task: For the compound `Cn1cc(-c2c(-c3cn(C)c4ncccc34)nc(N)[nH]c2=O)c2ccccc21` , what growth at 10 µM is on record?
Result: 98

Task: Using the record for `Cn1cc(-c2[nH]c(=O)[nH]c(=O)c2-c2cn(C)c3ccccc23)c2ccccc21` , report its growth at 10 µM.
Result: 91.7

Reference source for all entries: ChEMBL document CHEMBL2086254
